# Tested on: MDA-MB-468 breast
# Procedure Details: NCI tumour cell line growth inhibition, 48 h; in the data active = GI50 below about 0.43 µM; inactive = the rest
Outcomes: active, inactive

>>> cat("Cc1ccc(N(CSc2ccc(Cl)cc2)CSc2ccc(Cl)cc2)cc1")
"inactive"
>>> cat("CCN1C(=O)N(CC)C2C1NC(=S)N2/N=C/C=C/c1cccs1 (stereo not given)")
"active"
>>> cat("O=c1[nH]c2cc(Cl)ccc2n1C1CCN(CCCC(c2ccc(F)cc2)c2ccc(F)cc2)CC1")
"inactive"
>>> cat("CN1CCc2c(Sc3ccc(C(=O)NO)cc3)c3ccccc3n2C1")
"inactive"
>>> cat("Cc1ccc(Nc2nc(N)c(C(=O)c3ccc(C#N)cc3)s2)cc1")
"active"
